target: E3 ubiquitin-protein ligase Mdm2 (Homo sapiens, UniProt Q00987); assay: Inhibition of HDM2 expressed in Escherichia coli BL21 (DE3) assessed as inhibition of HDM2 binding to p53 protein by fluorescence anisotropy competition method; conditions: read-out: IC50
Sequence (Q00987 whole entry): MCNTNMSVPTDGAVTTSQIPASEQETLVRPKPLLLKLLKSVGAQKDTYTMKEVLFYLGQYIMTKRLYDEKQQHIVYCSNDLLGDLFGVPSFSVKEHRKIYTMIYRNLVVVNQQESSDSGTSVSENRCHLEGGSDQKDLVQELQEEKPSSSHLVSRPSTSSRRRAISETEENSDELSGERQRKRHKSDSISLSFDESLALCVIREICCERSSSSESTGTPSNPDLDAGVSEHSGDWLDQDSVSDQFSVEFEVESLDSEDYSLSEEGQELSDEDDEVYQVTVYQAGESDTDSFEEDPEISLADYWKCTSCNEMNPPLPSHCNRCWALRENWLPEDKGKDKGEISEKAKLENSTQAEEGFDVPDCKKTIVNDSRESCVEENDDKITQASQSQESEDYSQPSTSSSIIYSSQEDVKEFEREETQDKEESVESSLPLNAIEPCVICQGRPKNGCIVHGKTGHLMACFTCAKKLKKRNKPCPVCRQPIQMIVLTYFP
pIC50: −log10 of the molar value.
Label yes (1) for high-side pIC50 (at or above 5) and no (0) for low-side pIC50 (below it).

These recorded examples may help you get a feel for the data.
- CC(C)CCC(=O)N[C@@H](CCCC(=O)O)CN(C(=O)NCCCC1CCCCC1)[C@@H](CCCCN)CN(C(=O)NCCc1ccc(Br)cc1)[C@@H](CCCC(=O)O)CN(CCC(N)=O)C(=O)NCCCc1ccc(F)cc1: yes (1)
- CC(C)CCC(=O)NC(CCC(=O)O)CN(C(=O)NCCCC1CCCCC1)C(CCCCN)CN(C(=O)NCCc1ccc(Br)cc1)C(CCC(=O)O)CN(CCC(N)=O)C(=O)NCCCc1ccc(Br)cc1 (stereo unspecified): yes (1)
- NCCCCC(CN(C(=O)NCCc1ccc(Br)cc1)C(CCC(=O)O)CN(CCC(N)=O)C(=O)NCCCc1ccc(Br)cc1)N(CC(CCC(=O)O)NC(=O)NCC1CCCCC1)C(=O)NCCCC1CCCCC1 (stereo unspecified): yes (1)

Alright, here's another compound for you.
[Q] Reported pIC50 reaches at least 5 for CC(C)CCCNC(=O)N(CC(CCC(=O)O)NC(N)=O)C(CCCCN)CN(C(=O)NCCc1ccc(Cl)cc1)C(CCC(=O)O)CN(CCC(N)=O)C(=O)NCCc1ccccc1 (stereo unspecified) ?
[A] no (0)

====

# IC50 listing for each entry below
target: E3 ubiquitin-protein ligase Mdm2 (Homo sapiens, UniProt Q00987); experiment: Inhibition of HDM2 expressed in Escherichia coli BL21 (DE3) assessed as inhibition of HDM2 binding to p53 protein by fluorescence anisotropy competition method; details: read-out: IC50
Just the number please, in µM, no unit attached.

# example entries with known answers
* COc1ccc(CCCNC(=O)N(CC(CCC(=O)O)NC(N)=O)C(CCCCN)CN(C(=O)NCCc2ccc(Br)cc2)C(CCC(=O)O)CN(CCC(N)=O)C(=O)NCCCc2ccc(Br)cc2)cc1 (stereo not given) | 12
* Cc1ccc(CCNC(=O)N(CC(CCCCN)N(CC(CCC(=O)O)NC(=O)CCC(C)C)C(=O)NCCCC2CCCCC2)C(CCC(=O)O)CN(CCC(N)=O)C(=O)NCCCc2ccc(F)cc2)cc1 (stereo not given) | 2.9
* CC(C)CCCNC(=O)N(CC(CCC(=O)O)NC(N)=O)C(CCCCN)CN(C(=O)NCCc1ccc(Br)cc1)C(CCC(=O)O)CN(CCC(N)=O)C(=O)NCCCc1ccc([N+](=O)[O-])cc1 (stereo not given) | 41

Let's switch to this molecule now.
For record CC(C)CCC(=O)NC(CCC(=O)O)CN(C(=O)NCCCC1CCCCC1)C(CCCCN)CN(C(=O)NCCc1ccc(Br)cc1)C(CCC(=O)O)CN(CCC(N)=O)C(=O)NCCCc1ccc(F)cc1 (stereo not given) the listed IC50 is 2.6

====

# IC50 listing for each entry below
target: UniProtKB Q00987; assay: Inhibition of HDM2 expressed in Escherichia coli BL21 (DE3) assessed as inhibition of HDM2 binding to p53 protein by fluorescence anisotropy competition method; conditions: read-out: IC50
Just the number please, in µM, no unit attached.

- CC(C)CCCNC(=O)N(CC(CCC(=O)O)NC(N)=O)C(CCCCN)CN(C(=O)NCCc1ccc(Cl)cc1)C(CCC(=O)O)CN(CCC(N)=O)C(=O)NCCCc1ccccc1 (stereo not given): 43
- NCCCCC(CN(C(=O)NCCc1ccc(Br)cc1)C(CCC(=O)O)CN(CCC(N)=O)C(=O)NCCCc1ccc(Br)cc1)N(CC(CCC(=O)O)NC(N)=O)C(=O)NCCCc1ccc(Br)cc1 (stereo not given): 8.2
- NCCCCC(CN(C(=O)NCCc1ccc(Br)cc1)C(CCC(=O)O)CN(CCC(N)=O)C(=O)NCCCc1ccc(Br)cc1)N(CC(CCC(=O)O)NC(=O)Cc1ccccc1)C(=O)NCCCC1CCCCC1 (stereo not given): 10.5
- CC(C)CCCNC(=O)N(CC(CCC(=O)O)NC(N)=O)C(CCCCN)CN(C(=O)NCCc1ccc(Br)cc1)C(CCC(=O)O)CN(CCC(N)=O)C(=O)NCCc1ccc(Br)cc1 (stereo not given): 17

Let's switch to this molecule now.
Bench note, UniProtKB Q00987: Cc1ccc(CCNC(=O)N(CC(CCCCN)N(CC(CCC(=O)O)NC(=O)CCC(C)C)C(=O)NCCCC2CCCCC2)C(CCC(=O)O)CN(CCC(N)=O)C(=O)NCCCCc2ccc(F)cc2)cc1 (stereo not given) , IC50 reads 13
